Answer each item with its documented LDH release cytotoxicity.
Test system: HepaRG
Experiment: LDH release cytotoxicity, % of total lysis control; higher = more cytotoxic
Settings: 1 µM; 48 h
Report only the number, with the unit % understood.

Read off the recorded LDH release cytotoxicity for `CCCc1ccccc1`
-0.857

Could you please provide reported LDH release cytotoxicity for CC(C)(C)C(O)C(=Cc1ccc(Cl)cc1Cl)n1cncn1 (centres undefined) ? Thanks!
-0.38

Give the reported LDH release cytotoxicity for this molecule. CC(C)[O-].CC(C)[O-].[O-]CCN(CCO)CCO.[O-]CCN(CCO)CCO.[Ti+4] [Isopropyl triethanolamine titanate]
-0.333

Report LDH release cytotoxicity for ClC1C(Cl)C(Cl)C(Cl)C(Cl)C1Cl (centres undefined)
-0.901

Please list LDH release cytotoxicity recorded for the molecule O=C1C2(Cl)C3(Cl)C4(Cl)C(Cl)(Cl)C5(Cl)C3(Cl)C1(Cl)C5(Cl)C24Cl (centres undefined)
-0.604

Tell me measured LDH release cytotoxicity for `CCCCCCCCCCCCCCO` please.
-2.29

Tell me its LDH release cytotoxicity given OC1CCC(C2CCCCC2)CC1 (centres undefined) as the entry.
-2.39

For `C[Si]1(C)O[Si](C)(C)O[Si](C)(C)O[Si](C)(C)O1` , write its LDH release cytotoxicity.
-1.15

Provide LDH release cytotoxicity value for the following molecule: CC1(C)CC(N=C=O)CC(C)(CN=C=O)C1 (centres undefined) [Isophorone diisocyanate]
-2.1

Quickly give me recorded LDH release cytotoxicity for ClC1=C(Cl)C2(Cl)C3C4CC(C5OC45)C3C1(Cl)C2(Cl)Cl (centres undefined) [Dieldrin]
-1.99

Look up and state reported LDH release cytotoxicity for CC12CC1(C)C(=O)N(c1cc(Cl)cc(Cl)c1)C2=O (centres undefined)
-2.56

Using the record for CCCCCCC(=O)OCC [Ethyl heptanoate] , state its measured LDH release cytotoxicity.
-1.97

For the molecule `COCCOCCOCCOC` , give its reported LDH release cytotoxicity.
-3.35

Return value of LDH release cytotoxicity for input `CCCCN(CCCC)N=O` , no commentary.
-2.27
